# test-target: Adenosine receptor A2a, ADORA2A (h) (Homo sapiens, UniProt P29274)
# Construct: purchased Eurofins Cerep (SafetyScreen44-based IPP panel)
# Sequence (P29274 whole entry): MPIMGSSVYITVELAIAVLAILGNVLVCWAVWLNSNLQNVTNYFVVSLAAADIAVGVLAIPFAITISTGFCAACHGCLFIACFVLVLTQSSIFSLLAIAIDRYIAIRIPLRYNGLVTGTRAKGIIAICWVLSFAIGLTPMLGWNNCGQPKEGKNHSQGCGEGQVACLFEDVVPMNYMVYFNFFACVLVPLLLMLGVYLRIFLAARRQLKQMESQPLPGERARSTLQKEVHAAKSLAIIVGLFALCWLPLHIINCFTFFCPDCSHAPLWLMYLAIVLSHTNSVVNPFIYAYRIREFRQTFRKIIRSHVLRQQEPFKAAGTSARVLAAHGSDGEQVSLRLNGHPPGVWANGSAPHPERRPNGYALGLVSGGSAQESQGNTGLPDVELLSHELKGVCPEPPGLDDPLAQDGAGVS
# protocol-notes: IPP ADORA2A binding (agonist radioligand)
# run-parameters: IPP screening at 100 uM; control NECA
endpoint: Specific binding (%)
Only the number, expressed in %, is required.

Some solved cases for reference:
- Cc1c(O)cccc1O [2-methyl-1,3-benzenediol, 2-Methylbenzene-1,3-diol]: 8.4
- Nc1cc([N+](=O)[O-])cc(Cl)c1O [2-Amino-6-chloro-4-nitrophenol]: 3.6
- Nc1ccc(NCCO)c([N+](=O)[O-])c1 [HC Red 3, 2-(4-Amino-2-nitroanilino)ethan-1-ol]: 18.0
- CCN(CC)C(=O)c1cccc(C)c1 [DEET, N,N-Diethyl-3-methylbenzamide]: 20.5
- COc1ccc(Cl)cc1C(=O)NCCc1ccc(S(=O)(=O)NC(=O)NC2CCCCC2)cc1 [Glybenclamide]: -67.7
- CN(C)C(=N)N=C(N)N [Metformin, N,N-Dimethyltriimidodicarbonic diamide]: -1.4
- CC(=O)Nc1ccc(O)cc1 [Paracetamol, N-(4-Hydroxyphenyl)acetamide]: 6.7

Attention now turns to another entry.
Req: Item: CC(C)(CO)C(O)C(=O)NCCCO (centres unmarked) [Panthenol] Test system: Adenosine receptor A2a, ADORA2A (h) (Homo sapiens, UniProt P29274) Read-out: Specific binding Value: ?
Resp: 7.3

###

Below, each entry is listed with its recorded IPP screening %, Specific binding.
# Test system: Tubulin (r)
# protocol-notes: IPP Tubulin binding
# Design: species or system rat
# run-parameters: 10 uM; ligand/control Colchicine
Enter your answer as a number in %; do not include the unit.

Some entries whose results are on file:
• CCOP(=S)(OCC)Oc1nc(Cl)c(Cl)cc1Cl = -20.0
• O=[N+]([O-])c1cc(C(F)(F)F)c(Cl)c([N+](=O)[O-])c1Nc1ncc(C(F)(F)F)cc1Cl = 9.0

Req: Value lookup for IPP screening %, Specific binding; key = CCCCOC(=O)c1ccc(O)cc1 [Butylparaben, Butyl 4-hydroxybenzoate]
Resp: 8.0

Req: Proceed to CC(=O)N1CCN(c2ccc(OC[C@H]3CO[C@](Cn4ccnc4)(c4ccc(Cl)cc4Cl)O3)cc2)CC1
Resp: -15.0

###

# test-target: Adenosine receptor A2a, ADORA2A (h) (Homo sapiens, UniProt P29274)
# Construct: purchased Eurofins Cerep (SafetyScreen44-based IPP panel)
# protocol-notes: IPP ADORA2A binding (agonist radioligand)
# run-parameters: IPP screening at 10 uM; control NECA
Criterion: Specific binding meeting or surpassing 20%. Met: y. Not met: n.

Recorded results for 6 compounds are shown here.
• CCCCOC(=O)c1ccc(O)cc1 [Butylparaben, Butyl 4-hydroxybenzoate] = n
• N#CC(CCc1ccc(Cl)cc1)(Cn1cncn1)c1ccccc1 (centres unmarked) = y
• O=[N+]([O-])c1cc(C(F)(F)F)c(Cl)c([N+](=O)[O-])c1Nc1ncc(C(F)(F)F)cc1Cl = n
• Cn1cnc([N+](=O)[O-])c1Sc1ncnc2nc[nH]c12 = y
• CCOP(=S)(OCC)Oc1nc(Cl)c(Cl)cc1Cl = n
• CC(C)(C)c1ccc(CCOc2ncnc3ccccc23)cc1 = y

Req: Does the compound O=C1CN(N=Cc2ccc([N+](=O)[O-])o2)C(=O)N1 have recorded Specific binding that is 20% or more?
Resp: y

Req: Subsequent entry: CC(=O)N1CCN(c2ccc(OC[C@H]3CO[C@](Cn4ccnc4)(c4ccc(Cl)cc4Cl)O3)cc2)CC1
Resp: n

Req: What would you report for O=CCCCC=O ?
Resp: n

Req: Please give the result for CC1(C)C(C=C(Cl)Cl)C1C(=O)OC(C#N)c1cccc(Oc2ccccc2)c1 (centres unmarked) too.
Resp: n

Req: How about C[C@H]1O[C@@H](O[C@H]2[C@@H](O)C[C@H](O[C@H]3[C@@H](O)C[C@H](O[C@H]4CC[C@@]5(C)[C@H](CC[C@@H]6[C@@H]5C[C@@H](O)[C@]5(C)[C@@H](C7=CC(=O)OC7)CC[C@]65O)C4)O[C@@H]3C)O[C@@H]2C)C[C@H](O)[C@@H]1O ?
Resp: y
